These measurements were taken from PubChem BioAssay AID504408.

# experimental protocol: HSF-1 activators, primary screen, NIH3T3-HGL cells, MG132 stress, luminescence, single point (AID 504408);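 also: 0% = median of the neutral control wells and 100% = twice that signal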
# experimental parameters: NIH3T3-HGL HSF-1 luciferase reporter, MG132, 8 h; at 9 µM; stronger effect = higher value; 100% = twice DMSO control signal
The whole screen tested about 300,000 compounds, of which about 5,200 (1.7%) were called active. Many of the other results were omitted from the sample, so actives are more common in it than they were.
parameter measured: activation (%)

1. Cc1ccc2c(=O)cc(C(=O)NCCc3ccc(S(N)(=O)=O)cc3)oc2c1C = 62.8
2. CC(=O)Cn1ncc(N2CCOCC2)c(Br)c1=O = -14.8
3. Cc1csc2nc(O)c(C(=O)NCCN3CCOCC3)c(=O)n12 = -6.85
4. Cc1cc(=O)oc2cc(OC(C)C(=O)NCCc3ccc(S(N)(=O)=O)cc3)ccc12 (stereo not given) = 12.2
5. Cc1cc(=O)oc2c(C)c(OCC(=O)NCCc3ccc(S(N)(=O)=O)cc3)ccc12 = -4.95
6. O=C(Cn1nc(CNc2ccc(Cl)cc2)[n+]2c1CCCCC2)c1ccc(Cl)cc1 = 19.7
7. CCOc1ccc(S(=O)(=O)Nc2ccc(C(=O)NCCCN3CCCC3=O)cc2)cc1 = 4.33
8. Cn1nc(C(F)(F)F)cc1-c1ccc(/C=C(\C#N)C(=O)c2cccc(C(F)(F)F)c2)s1 = 65.6
9. O=C(Cn1ncc(N2CCCC2)c(Br)c1=O)c1ccc(Cl)cc1 = 75.4
10. CNC(=O)c1ccc(NC(=O)c2cccc(C(F)(F)F)c2)cc1 = 9.95

====

# experimental protocol: HSF-1 activators, primary screen, NIH3T3-HGL cells, MG132 stress, luminescence, single point (AID 504408);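 also: 0% = median of the neutral control wells and 100% = twice that signal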
# experimental parameters: NIH3T3-HGL HSF-1 luciferase reporter, MG132, 8 h; at 9 µM; stronger effect = higher value; 100% = twice DMSO control signal
Out of some 300,000 compounds screened, about 5,200 (1.7%) were called active. This excerpt belongs to a sample that is enriched for actives.
parameter measured: activation (%)

1. COc1ccccc1C(=O)NCCC(=O)NN1C(=O)NC2(CCCCC2)C1=O = -5.35
2. CC1CCCCC1NC(=O)c1cc(=O)[nH]c2ccccc12 (stereo unspecified) = 1.85
3. O=C(Cc1c(O)c2ccccc2[nH]c1=O)NCc1ccccc1 = 55.5
4. CCN1C(=O)[C@H]2[C@@H](c3ccc(-c4ccc(OC)cc4)cc3)N[C@@](Cc3ccccc3)(C(=O)OC)[C@H]2C1=O = 22.5
5. COC(=O)c1sc(NC(=O)c2csc3c2CCCC3)nc1C = 30.2
6. O=C(Nc1ccccc1N1CCOCC1)c1csc2c1CCCC2 = 6.54
7. CCN(CC(=O)Nc1cccc(S(=O)(=O)N2CCCCC2)c1)Cc1ccccc1 = 0.93
8. Cc1ccc(NC(=O)c2csc3c2CCCC3)cc1 = 59.9
9. CC(=O)N1CCN(C(=O)c2cc(-c3ccc(Cl)s3)nc3ccccc23)CC1 = 18.1
10. COc1cc2ccccc2cc1C(=O)Nc1ccc(N2CCOCC2)cc1 = 4.47
11. CCCOC(=O)Cc1c(O)c2ccccc2[nH]c1=O = -21.7

====

# experimental protocol: HSF-1 activators, primary screen, NIH3T3-HGL cells, MG132 stress, luminescence, single point (AID 504408);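 also: 0% = median of the neutral control wells and 100% = twice that signal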
# experimental parameters: NIH3T3-HGL HSF-1 luciferase reporter, MG132, 8 h; at 9 µM; stronger effect = higher value; 100% = twice DMSO control signal
Among all 300,000 compounds or so, about 5,200 (1.7%) were called active. The list comes from a sample in which actives are over-represented; it also holds close analogues and randomly drawn compounds.
parameter measured: activation (%)

1. Cc1ccccc1N1CC(C(=O)Nc2ccc(S(=O)(=O)N3CCCC3)cc2)CC1=O (centres undefined) = 9.12
2. Cc1ccc(S(=O)(=O)c2nnn3c2nc(N2CCN(c4ccccn4)CC2)c2ccccc23)cc1 = 30.6
3. Nc1cccnc1Sc1ccccc1 = 7.53
4. CSc1ccc(/C=N\NC(=O)COc2ccc(Cl)cc2Br)cc1 = 0.476
5. O=C(COC(=O)c1ncc(Cl)c(Cl)c1Cl)NCc1cccs1 = -3.74
6. CCOC(=O)CNC(=O)CSc1nnc(COc2ccc(Cl)cc2)n1CC = 52.7
7. CCCCn1c(N)c(N(CCC(C)C)C(=O)CC2OC(=O)c3ccccc32)c(=O)[nH]c1=O (centres undefined) = -3.07
8. O=C(Nc1c(Br)cc2c(c1Br)Cc1ccccc1-2)C(F)(F)F = -5.38
9. CN(C)CCn1c2c(c(SCC(=O)NCc3ccccc3)nc1=O)CCC2 = 4.29
10. O=C1CCCCC1Sc1ccc(Cl)cc1[N+](=O)[O-] (centres undefined) = 8.24
11. CCCCN(C(=O)c1ccc(C)o1)c1c(N)n(CCCC)c(=O)[nH]c1=O = 12.2
12. CCN(C(=O)COC(=O)c1sccc1C)c1c(N)n(Cc2ccccc2)c(=O)[nH]c1=O = -3.51
13. FC(F)(F)c1ccc2c3n(nc2c1)CCN=C3c1ccc(Cl)cc1 = -14.8
14. Cc1cccc(Nc2nc3c(S(=O)(=O)c4ccccc4)nnn3c3ccccc23)c1C = 8.48
15. O=C(O)CN1CCN(C(c2ccccc2)c2ccccc2)CC1 = -26.6
16. CC1(C)CC(N2CCN(C(c3ccccc3)c3ccccc3)CC2)=CC(=[N+]2CCCCC2)C1 = 59.1
17. CCn1c(COc2ccc(OC)cc2)nnc1SCC(=O)Nc1cc(OC)ccc1OC = 19.9
18. Cc1ccc(-c2cn3cc([N+](=O)[O-])ccc3n2)cc1 = 29.6
19. CC(Oc1ccc(Cl)cc1)C(=O)Nc1ncccn1 (centres undefined) = 9.27
20. CN1CCN(S(=O)(=O)c2ccc(Nc3ccc(F)cc3)nc2)CC1 = -7
21. CCOc1ccc(S(=O)(=O)N2CCN(C(=S)NCC3CCCO3)CC2)cc1 (centres undefined) = -5.36
22. O=C(CNC(=O)c1cccnc1)N/N=C/c1cccnc1 = -3.13
23. N#C/C(=C(\O)C(F)(F)F)c1nnc2n1CCCCC2 = 55.4
24. CC1CCC(NC(=O)CNC(=O)c2ccc3ccccc3c2)CC1 (centres undefined) = 26.1
25. Cc1cc(Oc2ccc(Cl)cc2)nc(SCC(=O)c2ccccc2)n1 = 2.82
26. Cc1ccc(-c2nnn(CC(=O)N(Cc3ccco3)C(C(=O)NC(C)(C)C)c3ccncc3)n2)o1 (centres undefined) = 10.4
27. O=C(NCc1ccncc1)c1ccc(NS(=O)(=O)c2cccc([N+](=O)[O-])c2)cc1 = 5.25
28. COc1ccc(/C=N/NC(=O)c2cccc(C(F)(F)F)c2)cc1 = 0.104
29. O=C1CCc2cc(S(=O)(=O)Nc3ccc(C(F)(F)F)cc3)cc3c2N1CC3 = 15.1
30. Cc1cc(C)nc(SCC(=O)c2ccc(Cl)cc2)n1 = -1.86
31. CCOC(=O)C1=C(CSc2nccn2C)NC(=O)NC1c1ccc(OC)cc1 (centres undefined) = 30.7
32. Cc1cc(C)nc(S/C=C/C(=O)c2ccccc2)n1 = 111
33. O=[N+]([O-])c1c(NCCO)cc(Sc2nc3ccccc3s2)c2nonc12 = 229
34. COc1ccccc1OCCCCCCN1CCN(C)CC1 = -3.8
35. COCCOC(=O)C1=C(C)N=c2s/c(=C\c3cccs3)c(=O)n2C1c1cccs1 (centres undefined) = 20
36. O=C(CSc1cccc2cccnc12)N/N=C/c1cccnc1 = 161
37. COc1ccc(C2=NN(C(=O)CSc3nc(=O)n4ccc(C)cc4n3)C(c3ccc(C)cc3)C2)cc1 (centres undefined) = 9.37
38. CNc1nc(Nc2ccc(C)c(Cl)c2)nc(N)c1[N+](=O)[O-] = 76.4
39. Cc1ccc(C(=O)OCc2nc(N)nc(Nc3ccccc3C)n2)cc1 = -1.52
40. O=C1N=C(N2CCCC2)S/C1=C\c1cccc(Br)c1 = 103
41. C/C(=N\Nc1ncc(Cl)cc1Cl)c1cccs1 = -33.8
42. CC1(c2ccc(Cl)cc2Cl)NC(=O)N(CC(=O)Nc2cccnc2Cl)C1=O (centres undefined) = -7.46
43. CC(OC(=O)CNC(=O)c1cccc(F)c1)C(=O)NC1CCCCC1C (centres undefined) = -3.7
44. COc1ccc(C(=O)Nc2cccc(NC(=O)c3ccc(OC)cc3OC)n2)c(OC)c1 = -34.1
